Target: SMARCA2-HiBiT HeLa cells (protein which is expressed from the SMARCA2 gene) (Homo sapiens, UniProt P51531)
Construct: protein which is expressed from the SMARCA2 and SMARCA4 genes; host or cells: HeLa (SMARCA2-HiBiT engineered line)
Sequence (P51531 whole entry): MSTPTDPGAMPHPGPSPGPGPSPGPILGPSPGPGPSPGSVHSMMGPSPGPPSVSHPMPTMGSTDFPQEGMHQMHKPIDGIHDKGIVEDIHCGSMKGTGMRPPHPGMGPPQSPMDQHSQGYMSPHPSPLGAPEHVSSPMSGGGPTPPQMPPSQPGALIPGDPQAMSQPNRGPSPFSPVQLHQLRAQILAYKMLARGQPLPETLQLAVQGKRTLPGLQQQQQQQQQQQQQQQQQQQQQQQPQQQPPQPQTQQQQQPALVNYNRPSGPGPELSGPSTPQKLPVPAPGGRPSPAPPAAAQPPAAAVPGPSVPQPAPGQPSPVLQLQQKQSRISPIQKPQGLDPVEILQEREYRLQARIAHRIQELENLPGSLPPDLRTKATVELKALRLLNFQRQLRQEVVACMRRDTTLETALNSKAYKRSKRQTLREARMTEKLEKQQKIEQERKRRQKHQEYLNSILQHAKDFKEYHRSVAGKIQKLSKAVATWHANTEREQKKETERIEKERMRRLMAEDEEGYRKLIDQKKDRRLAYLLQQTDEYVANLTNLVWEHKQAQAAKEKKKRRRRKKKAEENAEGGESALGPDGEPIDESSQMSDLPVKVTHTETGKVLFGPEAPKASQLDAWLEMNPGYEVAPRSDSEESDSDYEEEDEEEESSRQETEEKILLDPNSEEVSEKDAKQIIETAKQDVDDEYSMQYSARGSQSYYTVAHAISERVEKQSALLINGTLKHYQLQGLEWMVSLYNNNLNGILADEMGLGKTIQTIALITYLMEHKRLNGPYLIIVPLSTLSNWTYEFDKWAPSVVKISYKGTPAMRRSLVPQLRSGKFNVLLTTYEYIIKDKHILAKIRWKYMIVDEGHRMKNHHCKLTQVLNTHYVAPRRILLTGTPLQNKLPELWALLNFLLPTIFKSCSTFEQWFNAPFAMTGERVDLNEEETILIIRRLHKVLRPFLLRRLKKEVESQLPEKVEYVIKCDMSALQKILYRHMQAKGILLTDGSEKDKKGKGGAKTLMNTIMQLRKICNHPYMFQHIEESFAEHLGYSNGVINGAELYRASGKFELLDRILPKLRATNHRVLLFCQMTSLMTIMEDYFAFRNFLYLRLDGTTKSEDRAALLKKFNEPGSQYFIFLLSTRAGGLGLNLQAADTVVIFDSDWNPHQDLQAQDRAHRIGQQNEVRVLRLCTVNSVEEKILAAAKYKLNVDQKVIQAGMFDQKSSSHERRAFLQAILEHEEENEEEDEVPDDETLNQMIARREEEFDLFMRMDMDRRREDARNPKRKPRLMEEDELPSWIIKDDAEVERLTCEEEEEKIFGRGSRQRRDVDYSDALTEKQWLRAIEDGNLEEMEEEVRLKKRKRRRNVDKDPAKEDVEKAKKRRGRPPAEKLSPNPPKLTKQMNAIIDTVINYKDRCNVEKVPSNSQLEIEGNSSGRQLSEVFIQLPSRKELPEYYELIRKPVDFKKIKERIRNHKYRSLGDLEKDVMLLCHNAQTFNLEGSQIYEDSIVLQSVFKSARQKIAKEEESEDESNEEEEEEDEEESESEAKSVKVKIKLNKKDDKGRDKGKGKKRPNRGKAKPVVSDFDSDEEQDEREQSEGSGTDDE
Test: SMARCA2 degradation assay (HiBiT-fusion HeLa cell line, 24 h, luminescence)
Assay type: cell-based
Conditions: @ 1 μM
property.name: SMARCA2 % Degradation @ 1 μM

Use the examples below as a reference point.
compound: Nc1nnc(-c2ccccc2O)cc1N1CCN(c2ccnc(C#CCNC(=O)c3cnc4ccccn34)n2)CC1 [Compound P-66]
experimental.result: ++ (++=30-70%)
--
compound: CC(C)(C)OC(=O)N1CCC(F)(C#Cc2nccc(N3CCCN(c4cc(-c5ccccc5O)nnc4N)CC3)n2)CC1 [Compound P-349]
experimental.result: ++ (++=30-70%)
--
compound: CC(C)(C)OC(=O)N1CCN(CC#Cc2nccc(N3CCCN(c4cc(-c5ccccc5O)nnc4N)CC3)n2)CC1 [Compound P-143]
experimental.result: +++ (+++=>70%)
--
compound: Nc1nnc(-c2ccccc2O)cc1N1CCCN(c2ccnc(C#CCNC(=O)c3cc4ncccn4n3)n2)CC1 [Compound P-76]
experimental.result: +++ (+++=>70%)
--
compound: C[C@@H]1CCN(c2cc(-c3ccccc3O)nnc2N)CCN1c1ccnc(C#CCN2C3COCC2C3)n1 [Compound P-184]
experimental.result: +++ (+++=>70%)
--
compound: Cc1nn2ccn(CC#Cc3nccc(N4CCCN(c5cc(-c6ccccc6O)nnc5N)CC4)n3)c(=O)c2c1C [Compound P-115]
experimental.result: +++ (+++=>70%)
--
compound: Cn1ccnc1C#Cc1nccc(N2CCCN(c3cc(-c4ccccc4O)nnc3N)CC2)n1 [Compound P-354]
experimental.result: ++ (++=30-70%)
--
compound: Nc1nnc(-c2ccccc2O)cc1N1CCN(c2ccnc(C#CCNC(=O)c3cc4ccccc4o3)n2)CC1 [Compound P-75]
experimental.result: ++ (++=30-70%)

Now for a further compound.
Name the recorded SMARCA2 % Degradation @ 1 μM of the item Nc1nnc(-c2ccccc2O)cc1N1CCCN(c2ccnc(C#CCNCCF)n2)CC1 [Compound P-258] in your answer.
++ (++=30-70%)

----------
Molecular target: SMARCA4-HiBiT HeLa cells (protein which is expressed from the SMARCA4 gene) (Homo sapiens)
Construct: protein which is expressed from the SMARCA2 and SMARCA4 genes; host or cells: HeLa (SMARCA4-HiBiT engineered line)
Test: SMARCA4 degradation assay (HiBiT-fusion HeLa cell line, 24 h, luminescence)
Assay type: cell-based
property.name: DC50

record.smiles: C[C@@H]1CCN(c2cc(-c3ccccc3O)nnc2N)CCN1c1ccnc(C#CCN2[C@H](C)COC[C@@H]2C)n1
DC50: 50 to 500 nM

record.smiles: Nc1nnc(-c2ccccc2O)cc1N1CCC2(CCN(c3ccnc(C#CCn4ccnc4)n3)CC2)C1
DC50: 50 to 500 nM

Turning now to a further molecule:
Find the measured DC50 of CC(C)(C)OC(=O)NC/C=C/c1nccc(N2CCCN(c3cc(-c4ccccc4O)nnc3N)CC2)n1 and report it.
50 to 500 nM

----------
inhibition at 1 µM values by entry
Biological target: SMARCA4-HiBiT HeLa cells (protein which is expressed from the SMARCA4 gene) (Homo sapiens, UniProt P51532)
Construct: protein which is expressed from the SMARCA2 and SMARCA4 genes; host or cells: HeLa (SMARCA4-HiBiT engineered line)
Sequence (P51532 whole entry): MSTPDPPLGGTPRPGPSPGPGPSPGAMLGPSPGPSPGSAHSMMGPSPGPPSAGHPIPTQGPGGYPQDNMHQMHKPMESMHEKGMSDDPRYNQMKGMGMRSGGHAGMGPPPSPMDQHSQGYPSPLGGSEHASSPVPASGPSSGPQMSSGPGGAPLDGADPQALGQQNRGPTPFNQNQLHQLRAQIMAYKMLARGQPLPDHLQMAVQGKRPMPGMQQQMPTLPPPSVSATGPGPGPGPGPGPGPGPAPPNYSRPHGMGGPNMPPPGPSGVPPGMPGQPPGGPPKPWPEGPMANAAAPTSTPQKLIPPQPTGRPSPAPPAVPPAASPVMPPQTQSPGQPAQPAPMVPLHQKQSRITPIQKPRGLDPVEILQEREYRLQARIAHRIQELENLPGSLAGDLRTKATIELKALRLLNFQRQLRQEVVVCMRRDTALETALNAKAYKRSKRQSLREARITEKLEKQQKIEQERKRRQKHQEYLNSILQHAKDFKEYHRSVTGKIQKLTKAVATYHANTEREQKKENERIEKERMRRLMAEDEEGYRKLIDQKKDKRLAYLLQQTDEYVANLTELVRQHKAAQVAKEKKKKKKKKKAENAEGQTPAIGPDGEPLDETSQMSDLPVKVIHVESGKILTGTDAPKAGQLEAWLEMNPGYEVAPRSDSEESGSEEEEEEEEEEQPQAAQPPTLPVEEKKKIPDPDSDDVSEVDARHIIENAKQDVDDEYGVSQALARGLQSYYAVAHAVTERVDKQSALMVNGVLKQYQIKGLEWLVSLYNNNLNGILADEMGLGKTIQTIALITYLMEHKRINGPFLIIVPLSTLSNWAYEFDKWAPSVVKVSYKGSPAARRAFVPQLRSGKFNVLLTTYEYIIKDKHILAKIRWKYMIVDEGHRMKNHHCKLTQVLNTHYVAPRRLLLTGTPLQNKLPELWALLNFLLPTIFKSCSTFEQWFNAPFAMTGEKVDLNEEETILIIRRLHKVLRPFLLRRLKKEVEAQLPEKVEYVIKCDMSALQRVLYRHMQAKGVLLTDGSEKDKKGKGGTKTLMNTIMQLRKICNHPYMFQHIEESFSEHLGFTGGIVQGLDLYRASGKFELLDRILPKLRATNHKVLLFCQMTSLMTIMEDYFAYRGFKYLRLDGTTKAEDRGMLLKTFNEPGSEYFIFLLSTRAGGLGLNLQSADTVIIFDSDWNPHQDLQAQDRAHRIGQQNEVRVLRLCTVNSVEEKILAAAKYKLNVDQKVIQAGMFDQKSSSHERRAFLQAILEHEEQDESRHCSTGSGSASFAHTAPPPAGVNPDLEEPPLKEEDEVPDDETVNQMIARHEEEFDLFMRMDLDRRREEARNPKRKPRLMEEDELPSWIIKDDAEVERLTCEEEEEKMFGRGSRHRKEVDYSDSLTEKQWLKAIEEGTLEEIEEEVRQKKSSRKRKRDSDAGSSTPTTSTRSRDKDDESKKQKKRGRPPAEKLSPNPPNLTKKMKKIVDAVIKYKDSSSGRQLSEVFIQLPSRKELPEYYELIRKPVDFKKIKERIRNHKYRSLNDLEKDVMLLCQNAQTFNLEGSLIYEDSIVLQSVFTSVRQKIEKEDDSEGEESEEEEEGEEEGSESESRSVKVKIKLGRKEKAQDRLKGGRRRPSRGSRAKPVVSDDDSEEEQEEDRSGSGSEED
Assay: SMARCA4 degradation assay (HiBiT-fusion HeLa cell line, 24 h, luminescence)
Format: cell-based
Conditions: @ 1 μM

Answered examples (5):
molecule: CC1CN(c2ccnc(C#CCN)n2)CCN(c2cc(-c3ccccc3O)nnc2N)C1 (centres unmarked)
inhibition at 1 µM: < 30%
--
molecule: Nc1nnc(-c2ccccc2O)cc1N1CCCN(c2ccnc(C#CCN3CCCC3)n2)CC1
inhibition at 1 µM: > 70%
--
molecule: C[C@@H]1CCN(c2cc(-c3ccccc3O)nnc2N)CCN1c1ccnc(C#CCN2CC3(COC3)C2)n1
inhibition at 1 µM: < 30%
--
molecule: C[C@H](O)C#Cc1nccc(N2CCCN(c3cc(-c4ccccc4O)nnc3N)CC2)n1
inhibition at 1 µM: 30 to 70%
--
molecule: C[C@@H]1CCN(c2cc(-c3ccccc3O)nnc2N)CCN1c1ccnc(/C=C/C2CC2)n1
inhibition at 1 µM: < 30%

Supply recorded inhibition at 1 µM for Nc1nnc(-c2ccccc2O)cc1N1CCCN(c2ccnc(C#CCN3CCCCC3)n2)CC1 here.
30 to 70%

State its inhibition at 1 µM for this molecule: Nc1nnc(-c2ccccc2O)cc1N1CC2C1CCN2c1ccnc(C#CCNC(=O)c2cc3ncccn3n2)n1 (centres unmarked)
30 to 70%

Return value of inhibition at 1 µM for input C[C@@H]1CN(c2ccnc(C#CCNC(=O)c3cc4ncccn4n3)n2)C[C@@H](C)N1c1cc(-c2ccccc2O)nnc1N , no commentary.
< 30%

Read the entry CC(C#Cc1ncc(F)c(N2CCN(c3cc(-c4ccccc4O)nnc3N)CC[C@H]2C)n1)N(C)C (some centres unmarked) and write its reported inhibition at 1 µM.
< 30%

Read off the recorded inhibition at 1 µM for Nc1nnc(-c2ccccc2O)cc1N1CCN(c2ccnc(C#CCNC(=O)c3cc4ccccc4o3)n2)CC1
30 to 70%

Respond only with inhibition at 1 µM recorded for Nc1nnc(-c2ccccc2O)cc1N1CCCN(c2ccnc(C#CCN3C4CCC3CC(O)C4)n2)CC1 (centres unmarked)
< 30%

Specify measured inhibition at 1 µM for C[C@@H]1CCN(c2cc(-c3ccccc3O)nnc2N)CCN1c1ccnc(C#CCN2CC[C@H]2CF)n1 .
< 30%

Provide measured inhibition at 1 µM value, entry: Nc1nnc(-c2ccccc2O)cc1N1CCN(c2ccnc(C#CCNC(=O)c3cccc4ccoc34)n2)CC1
30 to 70%

Fill in inhibition at 1 µM for record Cn1nc(C(=O)NCC#Cc2nccc(N3CCN(c4cc(-c5ccccc5O)nnc4N)CC3)n2)cc1C1CC1
30 to 70%

----------
Below is a list of entries, each paired with its recorded DC50 value.
Molecular target: SMARCA2-HiBiT HeLa cells (protein which is expressed from the SMARCA2 gene) (Homo sapiens)
Construct: protein which is expressed from the SMARCA2 and SMARCA4 genes; host or cells: HeLa (SMARCA2-HiBiT engineered line)
Test: SMARCA2 degradation assay (HiBiT-fusion HeLa cell line, 24 h, luminescence)
Type: cell-based

Consider the following illustrative entries.
molecule: Nc1nnc(-c2ccccc2O)cc1N1CCN(c2ccnc(C#CCNC(=O)c3coc4ccccc34)n2)CC1 [Compound P-55]
property.name: DC50
experimental.result: 0.05 to 0.5 µM

molecule: C[C@@H]1CCN(c2cc(-c3ccccc3O)nnc2N)CCN1c1ccnc(C#CCN(C)C)n1 [Compound P-345]
property.name: DC50
experimental.result: < 0.05 µM

molecule: Nc1nnc(-c2ccccc2O)cc1N1CCCN(c2ccnc(C#CCN3C[C@H]4C[C@@H]3CO4)n2)CC1 [Compound P-376]
property.name: DC50
experimental.result: 0.05 to 0.5 µM

For the next question, use this molecule.
Find DC50 for CC1CCC(C)N1CC#Cc1nccc(N2CCN(c3cc(-c4ccccc4O)nnc3N)CC[C@H]2C)n1 (stereo partly shown) [Compound P-246] on SMARCA2-HiBiT HeLa cells (protein which is expressed from the SMARCA2 gene) (Homo sapiens) and write it down.
< 0.05 µM

----------
Biological target: SMARCA2-HiBiT HeLa cells (protein which is expressed from the SMARCA2 gene) (Homo sapiens, UniProt P51531)
Construct: protein which is expressed from the SMARCA2 and SMARCA4 genes; host or cells: HeLa (SMARCA2-HiBiT engineered line)
Assay: SMARCA2 degradation assay (HiBiT-fusion HeLa cell line, 24 h, luminescence)
Type: cell-based
property.name: DC50

molecule: CC1CN(c2cc(-c3ccccc3O)nnc2N)CCCN1c1ccnc(C#CCNC(=O)c2cc3ncccn3n2)n1 (stereo not shown)
experimental.result: 50 to 500 nM
//
molecule: Nc1nnc(-c2ccccc2O)cc1N1CCCN(c2ccnc(C#CCn3ncc4ccncc43)n2)CC1
experimental.result: 50 to 500 nM
//
molecule: CC(C#Cc1nccc(N2C3CCC2CN(c2cc(-c4ccccc4O)nnc2N)C3)n1)NC(=O)c1cc2ncccn2n1 (stereo not shown)
experimental.result: 50 to 500 nM
//
molecule: C[C@@H]1CCN(c2cc(-c3ccccc3O)nnc2N)CCN1c1ccnc(C#CCN2[C@H](C)C[C@H]2C)n1
experimental.result: < 50 nM
//
molecule: C[C@@H]1CCN(c2cc(-c3ccccc3O)nnc2N)CCN1c1ccnc(C#CCN2C[C@@H]3C[C@H]2CO3)c1
experimental.result: 50 to 500 nM
//
molecule: C[C@@H]1CCN(c2cc(-c3ccccc3O)nnc2N)CCN1c1ccnc(C#CCN2CCCCC2)c1
experimental.result: < 50 nM
//
molecule: CC1CN(c2ccnc(C#CCN)n2)CCCN1c1cc(-c2ccccc2O)nnc1N (stereo not shown)
experimental.result: 500 to 5000 nM
//
molecule: Nc1nnc(-c2ccccc2O)cc1N1CC2CC1CN(c1ccnc(C#CCNC(=O)c3cc4ncccn4n3)n1)C2 (stereo not shown)
experimental.result: 500 to 5000 nM
//
molecule: Nc1nnc(-c2ccccc2O)cc1N1CCN(c2ccnc(C#CCNC(=O)c3ccc4ccccc4n3)n2)CC1
experimental.result: 50 to 500 nM
//
molecule: C[C@@H]1CCN(c2cc(-c3ccccc3O)nnc2N)CCN1c1ccnc(C#CCN2[C@H](C)C[C@@H]2C)n1
experimental.result: < 50 nM

Look up and state reported DC50 for Cn1cc(C#Cc2nccc(N3CCCN(c4cc(-c5ccccc5O)nnc4N)CC3)n2)cn1
500 to 5000 nM

Assign DC50 to the following record: C[C@@H]1CCN(c2cc(-c3ccccc3O)nnc2N)CCN1c1ccnc(C#CCN(C)CC(F)F)n1
50 to 500 nM

Give me measured DC50, please, for this molecule: C[C@@H]1CCN(c2cc(-c3ccccc3O)nnc2N)CCN1c1ccnc(/C=C/CN2CCC2)n1
50 to 500 nM

Return reported DC50. Input molecule: Cc1c(C(=O)NCC#Cc2nccc(N3CCN(c4cc(-c5ccccc5O)nnc4N)CC3)n2)oc2ccccc12
50 to 500 nM

Given the molecule Cn1nc(C(=O)NCC#Cc2nccc(N3CCN(c4cc(-c5ccccc5O)nnc4N)CC3)n2)cc1C1CC1 , write its reported DC50.
50 to 500 nM

Entry N#CCNCC#Cc1nccc(N2CCCN(c3cc(-c4ccccc4O)nnc3N)CC2)n1 needs its DC50 filled in; supply it.
50 to 500 nM
